system: HT-29; test: Cytotoxicity against human HT-29 cells after 72 hrs by SRB assay; format: functional, cell-based; details: HT-29, 72 h
pIC50: −log10 of the molar value.
assayEndpoint: pIC50

compound	pIC50
CC1=C[C@@H]([C@]2(O)[C@H]3[C@](C)(CC[C@]45C[C@]67OC(=O)C[C@H]6OC(C)(C)[C@@H]7C[C@@H](O)[C@H]4C(=O)[C@@]3(O)O5)C(=O)[C@]2(C)O)OC1=O [SCHISANDILACTONE F]	< 4.00
CC1=C[C@@H]([C@@H]2[C@H]3[C@](C)(C(=O)C[C@]45C[C@]67OC(=O)C[C@H]6O[C@@](C)(CO)[C@@H]7CC[C@@H]4[C@@H](O)[C@@]3(O)O5)C(=O)[C@]2(C)O)OC1=O [SCHISANDILACTONE E]	< 4.00

Now turn to the next compound.
Just so you know, measured pIC50 for C[C@@H]1C(=O)O[C@H]2[C@@H]1O[C@]13O[C@@]4(CC[C@]5(C)C(=O)[C@](C)(O)[C@H]2[C@H]15)C[C@]12OC(=O)C[C@H]1O[C@@](C)(CO)[C@@H]2CC[C@H]4C3=O [SCHISANDILACTONE I] came out at < 4.00

====

system: HT-29; experiment: Cytotoxicity against human HT-29 cells after 72 hrs by SRB assay; format: functional, cell-based; conditions: HT-29, 72 h
Where a name gives a salt, the structure may show the parent alone.
Quick reference: IC50 of the listed items.

molecule	endpointResult
CC(=O)[C@]1(N)Cc2c(O)c3c(c(O)c2[C@@H](O[C@H]2C[C@H](O)[C@H](O)CO2)C1)C(=O)c1ccccc1C3=O [AMRUBICIN HYDROCHLORIDE]	4.57 µM
C[C@@H]1C(=O)O[C@H]2[C@@H]1O[C@]13O[C@@]4(CC[C@]5(C)C(=O)[C@](C)(O)[C@@]2(O)[C@H]15)C[C@]12OC(=O)C[C@H]1O[C@@](C)(CO)[C@@H]2C[C@@H]1O[C@@]14C3=O	> 100 µM
CC1=C[C@@H]2O[C@]34O[C@@]5(CC[C@]6(C)C(=O)[C@](C)(O)[C@]2(OC1=O)[C@H]36)C[C@]12OC(=O)C[C@H]1O[C@@](C)(CO)[C@@H]2CC[C@@]5(O)C4=O	> 100 µM

Shifting focus to the molecule that follows.
Value of measured IC50 for the entry C[C@H]1C(=O)O[C@@H]2[C@H]1O[C@]1(C)[C@H]2[C@H]2[C@](C)(CC[C@]34C[C@]56OC(=O)C[C@H]5OC(C)(C)[C@@H]6C[C@H](O)[C@H]3C(=O)[C@@]2(O)O4)[C@@H]1O : > 100 µM

====

Reported values of pIC50 for individual entries
test system: K562; assay: Cytotoxicity against human K562 cells after 72 hrs by SRB assay; format: functional, cell-based; conditions: K562, 72 h
pIC50: −log10 of the molar value. Structures can show the parent of a compound that is named as a salt.

The examples below pair each entry with its known result.
compound	pIC50
C[C@@H]1C(=O)O[C@H]2[C@@H]1O[C@]13O[C@@]4(CC[C@]5(C)C(=O)[C@](C)(O)[C@@]2(O)[C@H]15)C[C@]12OC(=O)C[C@H]1O[C@@](C)(CO)[C@@H]2C[C@@H]1O[C@@]14C3=O	< 4.00
CC1=C[C@@H]([C@]2(O)[C@H]3[C@](C)(CC[C@]45C[C@]67OC(=O)C[C@H]6OC(C)(C)[C@@H]7C[C@@H](O)[C@H]4C(=O)[C@@]3(O)O5)C(=O)[C@]2(C)O)OC1=O	< 4.00
C[C@H]1C(=O)O[C@@H]2[C@H]1O[C@@]1(C)C(=O)[C@@]3(C)CC[C@]45C[C@]67OC(=O)C[C@H]6OC(C)(C)[C@@H]7C[C@H](O)[C@H]4C(=O)[C@@](O)(O5)[C@H]3[C@@]21O	< 4.00

Proceed to the following item.
Record CC(=O)[C@]1(N)Cc2c(O)c3c(c(O)c2[C@@H](O[C@H]2C[C@H](O)[C@H](O)CO2)C1)C(=O)c1ccccc1C3=O [AMRUBICIN HYDROCHLORIDE] . Reported pIC50: 5.92

====

system: A549; assay: Cytotoxicity against human A549 cells after 72 hrs by SRB assay; assay type: functional, cell-based; conditions: A549, 72 h
pIC50: −log10 of the molar value.
assayEndpoint: pIC50

# annotated cases, reported pIC50 shown
CC1=C[C@@H]([C@@H]2[C@H]3[C@](C)(C(=O)C[C@]45C[C@]67OC(=O)C[C@H]6O[C@@](C)(CO)[C@@H]7CC[C@@H]4[C@@H](O)[C@@]3(O)O5)C(=O)[C@]2(C)O)OC1=O < 4.00
CC1=C[C@@H]2O[C@]34O[C@@]5(CC[C@]6(C)C(=O)[C@](C)(O)[C@]2(OC1=O)[C@H]36)C[C@]12OC(=O)C[C@H]1O[C@@](C)(CO)[C@@H]2CC[C@@]5(O)C4=O < 4.00

Turning to the following molecule.
Input C[C@@H]1C(=O)O[C@H]2[C@@H]1O[C@]13O[C@@]4(CC[C@]5(C)C(=O)[C@](C)(O)[C@@]2(O)[C@H]15)C[C@]12OC(=O)C[C@H]1O[C@@](C)(CO)[C@@H]2C[C@@H]1O[C@@]14C3=O . Output pIC50: < 4.00
